- TGT: 5-HT7b receptor (human)
- Sequence (P34969 whole entry, looked up): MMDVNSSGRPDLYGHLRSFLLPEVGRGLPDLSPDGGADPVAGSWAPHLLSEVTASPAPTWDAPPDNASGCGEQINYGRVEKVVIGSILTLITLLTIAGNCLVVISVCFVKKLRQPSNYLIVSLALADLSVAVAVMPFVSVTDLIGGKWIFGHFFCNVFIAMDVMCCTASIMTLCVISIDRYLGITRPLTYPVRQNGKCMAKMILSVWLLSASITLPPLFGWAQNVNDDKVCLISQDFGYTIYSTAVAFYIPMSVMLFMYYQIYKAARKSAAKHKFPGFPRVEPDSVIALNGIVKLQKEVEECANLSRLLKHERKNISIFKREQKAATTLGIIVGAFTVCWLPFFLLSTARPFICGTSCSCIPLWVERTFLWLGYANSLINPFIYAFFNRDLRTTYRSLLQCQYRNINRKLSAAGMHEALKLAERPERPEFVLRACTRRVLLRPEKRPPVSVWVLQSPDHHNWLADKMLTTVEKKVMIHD
- PROCEDURE TEXT: primary screen, binary call; higher = more effect of the substance; call rule not given here
- Set-up: hit call from the mean of at least two separate experiments
- RECORDED CONDITIONS: 10 µM
Would you mind answering with one of these outcomes? active, inactive

Worked examples, 6 compounds total:
| COMPOUND | TGT | ASSIGNED LABEL |
| --- | --- | --- |
| Oc1cnc(-c2ccccc2)nc1 | 5-HT7b receptor (human) | inactive |
| Nc1ccc(-c2ccccc2)cc1C(=O)O | 5-HT7b receptor (human) | inactive |
| Clc1ccc2nnnn2n1 | 5-HT7b receptor (human) | inactive |
| N#Cc1ccc(C(=O)N2CCOCC2)cc1 | 5-HT7b receptor (human) | inactive |
| COc1cccc(NC2=NCCCCC2)c1 | 5-HT7b receptor (human) | inactive |
| Cc1nccn1Cc1cccc(C#N)c1 | 5-HT7b receptor (human) | inactive |

Data request: What is the recorded call for this compound in the test? O=C(O)c1cnc(-c2ccccc2)s1
Data returned: inactive

Data request: Fill in: this test's call for O=C1CCCc2occc21 is ___
Data returned: inactive

Data request: What is the recorded call for this compound in the test? FC1(F)CNCC(F)(F)O1
Data returned: inactive

Data request: Call for entry O=C(O)C1CCCN(C(=O)N2CCCC2)C1 (centres unmarked) :
Data returned: inactive

Data request: Assay outcome for Cc1ccc(C)n1Cc1ccccc1Cl : what was it?
Data returned: inactive

Data request: Kindly provide the recorded test outcome for the following compound: c1ccc2oc(C3CCCNC3)nc2c1 (centres unmarked)
Data returned: inactive

Data request: Record lookup: outcome of this test for N#CC1CCS(=O)(=O)C1 (centres unmarked) ?
Data returned: inactive

Data request: What outcome does the record of this test show for O=C(NC1CC1)c1ccccc1O ?
Data returned: inactive
